Tested on: Proteus vulgaris TB-615
TEST_NAME: MIC, antimicrobial activity
Assay type: cell-based
CONDITIONS_USED: Proteus vulgaris, TB615, Proteus vulgaris TB-615, tobramycin resistant strain; read-out: Minimum Inhibitory Concentration (MIC)

| MOLECULE | UNIT_DESCRIPTOR | RESULT_COMPARATOR | MIC |
| --- | --- | --- | --- |
| NC[C@H]1O[C@H](O[C@H]2[C@H](O)[C@@H](O[C@H]3O[C@H](CO)[C@@H](O)[C@H](N)[C@H]3O)[C@H](N)C[C@@H]2N)[C@H](N)C[C@@H]1O [TOB, tobramycin, reference compound] | mg/L | = | 25 |
| NC[C@H]1O[C@H](O[C@H]2[C@H](O)[C@@H](O[C@H]3O[C@H](CO)[C@@H](O)[C@H](N)[C@H]3O)[C@H](NC(=O)C(O)C3CCN3)C[C@@H]2N)[C@H](N)C[C@@H]1O (some centres unmarked) | mg/L | > | 100 |
| NC[C@H]1O[C@H](O[C@H]2[C@H](O)[C@@H](O[C@H]3O[C@H](CO)[C@@H](O)[C@H](N)[C@H]3O)[C@H](NC(=O)C(O)C3CNC3)C[C@@H]2N)[C@H](N)C[C@@H]1O (some centres unmarked) | mg/L | = | 12.5 |
| NC[C@H]1O[C@H](O[C@H]2[C@H](O)[C@@H](O[C@H]3O[C@H](CO)[C@@H](O)[C@H](N)[C@H]3O)[C@H](NC(=O)C(O)C3CCNC3)C[C@@H]2N)[C@H](N)C[C@@H]1O (some centres unmarked) | mg/L | = | 12.5 |
| NC[C@H]1O[C@H](O[C@H]2[C@H](O)[C@@H](O[C@H]3O[C@H](CO)[C@@H](O)[C@H](N)[C@H]3O)[C@H](NC(=O)C(O)C3CCCNC3)C[C@@H]2N)[C@H](N)C[C@@H]1O (some centres unmarked) | mg/L | = | 25 |
